Assay: Cytotoxicity against human KG1a cells after 24 hrs by CellTitre-Blue assay
Type: functional, cell-based
Settings: KG-1a
IC50 listing for selected compounds.

Nn1c(SCc2ccccc2)nnc1-c1c[nH]c2ccccc12 = 17.2 µM
Nn1c(SCc2ccccc2[N+](=O)[O-])nnc1-c1c[nH]c2ccccc12 = 20.8 µM
COc1ccc(CSc2nnc(-c3c[nH]c4ccccc34)n2N)cc1 = > 100 µM
Nn1c(SCc2ccc([N+](=O)[O-])cc2)nnc1-c1c[nH]c2ccccc12 = 6.9 µM
Cc1ccc(CSc2nnc(-c3c[nH]c4ccccc34)n2N)cc1 = > 100 µM

Exam item: Requested read-out: IC50. Entry: COc1cccc(CSc2nnc(-c3c[nH]c4ccccc34)n2N)c1
Marked response: 12.9 µM

Exam item: Need IC50 of Nn1c(SCc2ccc(Br)cc2)nnc1-c1c[nH]c2ccccc12 , thanks.
Marked response: 55.8 µM

Exam item: Requested read-out: IC50. Entry: Nn1c(SCc2ccc(F)cc2)nnc1-c1c[nH]c2ccccc12
Marked response: 13.2 µM

Exam item: Consider the compound Nn1c(SCc2cccc([N+](=O)[O-])c2)nnc1-c1c[nH]c2ccccc12 and give its measured IC50.
Marked response: 0.65 µM

* * *

Molecular target: Apoptosis regulator Bcl-2 (Homo sapiens)
Sequence (P10415 whole entry): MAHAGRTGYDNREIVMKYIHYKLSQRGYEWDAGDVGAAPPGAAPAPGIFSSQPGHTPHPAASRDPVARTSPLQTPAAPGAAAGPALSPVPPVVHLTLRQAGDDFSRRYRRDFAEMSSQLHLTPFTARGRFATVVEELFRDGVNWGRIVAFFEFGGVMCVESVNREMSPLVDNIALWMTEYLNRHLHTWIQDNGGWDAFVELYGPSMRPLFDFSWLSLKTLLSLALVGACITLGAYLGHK
Experiment: Competitive binding affinity to his-tagged Bcl-2 (unknown origin) after 1 hr by ELISA in presence of Bim peptide
quantity-kind: IC50 (nM)
Dear colleague, please return just the value in nM, with no unit written.

Exam item: Quick check: IC50 on Apoptosis regulator Bcl-2 (Homo sapiens), item Nn1c(SCc2cccc([N+](=O)[O-])c2)nnc1-c1c[nH]c2ccccc12 ?
Marked response: 1430
